Target: NAC fibrils (Homo sapiens)
Construct: NAC is a 35-amino acid fragment of α-synuclein; purchased Bachem Inc
Assay: Thioflavin T fluorometry - disruption of Parkinson's disease NAC fibrils
Assay type: biochemical
Conditions: NAC:test compound wt/wt ratio 1:1; 25 μM pre-fibrillized NAC, 37° C., 3 days; read-out: % Inhibition NAC (result ± S.D.)
metric name: inhibition (%)
# output: bare number, implied unit %

As a guide, the following entries are already answered.
compound="O=C(Nc1ccc(O)c(O)c1)C(=O)Nc1ccc(O)c(O)c1 [Compound 63, oxalic acid bis(3,4-dihydroxyanilide)]" metric_name=inhibition recorded_number=45.6
compound="O=C(CCC(=O)Nc1ccc(O)c(O)c1)Nc1ccc(O)c(O)c1 [Compound 66, succinic acid bis(3,4-dihydroxyanilide)]" metric_name=inhibition recorded_number=98.9
compound="O=C(N[C@@H]1CCCC[C@H]1NC(=O)c1ccc(O)c(O)c1)c1ccc(O)c(O)c1 (relative stereo) [Compound 26]" metric_name=inhibition recorded_number=70.4
compound="O=C(c1ccc(O)c(O)c1)C(O)c1ccc(O)c(O)c1 (stereo not shown) [Compound 1, 3,4,3′,4′-tetrahydroxybenzoin]" metric_name=inhibition recorded_number=100
compound="O=C(CCC(=O)NCc1ccc(O)c(O)c1)NCc1ccc(O)c(O)c1 [Compound 67]" metric_name=inhibition recorded_number=97.4

GET /values?readout=inhibition&item= O=C(NCc1ccc(O)c(O)c1)c1ccc(O)c(O)c1 [Compound 52]
99.7

GET /values?readout=inhibition&item= O=C(c1ccc(O)c(O)c1)N1CCN(C(=O)c2ccc(O)c(O)c2)CC1 [Compound 23, 1,4-bis(3,4-dihydroxybenzoyl)piperazine]
58

###

molecules and their reported inhibition
Target: NAC fibrils (Homo sapiens, UniProt P37840)
Construct: NAC is a 35-amino acid fragment of α-synuclein; purchased Bachem Inc
Experiment: Thioflavin T fluorometry - disruption of Parkinson's disease NAC fibrils
Assay type: biochemical
Details: NAC:test compound wt/wt ratio 1:0.01; 25 μM pre-fibrillized NAC, 37° C., 3 days; read-out: % Inhibition NAC (result ± S.D.)
# output: bare number, implied unit %

As a guide, the following entries are already answered.
molecule="O=C(c1ccc(O)c(O)c1)N1CCN(C(=O)c2ccc(O)c(O)c2)CC1 [Compound 23, 1,4-bis(3,4-dihydroxybenzoyl)piperazine]" metric_name=inhibition recorded_number=35.6
molecule=O=C(CCC(=O)NCc1ccc(O)c(O)c1)NCc1ccc(O)c(O)c1 metric_name=inhibition recorded_number=30.6

Please examine the following record next.
Could you share what inhibition was measured for O=C(Nc1ccc(O)c(O)c1)C(=O)Nc1ccc(O)c(O)c1 [Compound 63, oxalic acid bis(3,4-dihydroxyanilide)] , tested on NAC fibrils (Homo sapiens, UniProt P37840)?
33

###

Target: Aβ 1-42 fibrils (Homo sapiens, UniProt P05067)
Construct: purchased Bachem Inc
Sequence (P05067 672-713): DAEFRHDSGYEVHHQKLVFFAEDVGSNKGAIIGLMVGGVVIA
Test: Thioflavin T fluorometry - disruption of pre-formed Aβ 1-42 Alzheimer's fibrils
Assay type: biochemical
Settings: Aβ:test compound wt/wt ratio 1:0.1; 25 μM pre-fibrillized Aβ 1-42, 37° C., 3 days; read-out: % Inhibition Aβ (result ± S.D.)
molecules and their reported inhibition
# output: bare number, implied unit %

As a guide, the following entries are already answered.
molecule="O=C(Nc1ccc(O)c(O)c1)Nc1ccc(O)c(O)c1 [Compound 76, 1,3-bis(3,4-dihydroxyphenyl)urea]" metric_name=inhibition measure_unit=% recorded_number=86.5
molecule=O=C(NCc1ccc(O)c(O)c1)C(=Cc1ccc(O)c(O)c1)NC(=O)c1ccc(O)c(O)c1 metric_name=inhibition measure_unit=% recorded_number=81
molecule=O=C(CCc1ccc(O)c(O)c1)Nc1ccc(O)c(O)c1 metric_name=inhibition measure_unit=% recorded_number=60.2
molecule="Oc1ccc(CN2CCN(Cc3ccc(O)c(O)c3)CC2)cc1O [Compound 9, 1,4-bis(3,4-dihydroxybenzyl)piperazine]" metric_name=inhibition measure_unit=% recorded_number=34.9
molecule="O=C(Nc1ccc(O)c(O)c1)C(=O)Nc1ccc(O)c(O)c1 [Compound 63, oxalic acid bis(3,4-dihydroxyanilide)]" metric_name=inhibition measure_unit=% recorded_number=23.6
molecule="Oc1ccc(CCc2ccc(O)c(O)c2)cc1O [Compound 4, 1,2-bis(3,4-dihydroxyphenyl)ethane]" metric_name=inhibition measure_unit=% recorded_number=97.4
molecule=O=C(C=Cc1ccc(O)c(O)c1)NCc1ccc(O)c(O)c1 metric_name=inhibition measure_unit=% recorded_number=80.1
molecule=O=C(NCCc1ccc(O)c(O)c1)Nc1ccc(O)c(O)c1 metric_name=inhibition measure_unit=% recorded_number=89.7

Please examine the following record next.
GET /values?readout=inhibition&item= `O=C(NCc1ccc(O)c(O)c1)c1ccc(O)c(O)c1`
53.6
